The origin of these recorded values is paper PMC6908968.

Target: EBOV GP ectodomain residues 1-636 (GPec) (Zaire ebolavirus, strain  …, UniProt Q05320)

Binder	binding result
5.6.c3151 (antibody, V domains shown) VH: EVQLVESGGGVVQPGGSLRLSCAASGFDFDDYPMNWVRQAPGKGLELVFLISGDGGSTYSADSVKGRFTISRDNSKNSLYLQMNSLRTEDTALYYCAKDAVDNSGLYYYGMDVWGQGTTVIVSS VL: DIQMTQSPSSVSASVGDRVTINCRASQGISGWLAWYQQKPGKAPKLLIYAASSLQSGVPSRFSGSGSGTDFTLAISSLQPEDLATYYCQQTHSFPFTFGPGTKVGIK	binds
5.6.c3083 (antibody, V domains shown) VH: QVQLVQSGVEVKKPGASVKLSCKASGYTFTTYGISWVRQAPGQGLEWMGWISAYDDNANYGQQFQGRVTMTTDTSTSTAYMELRSLRSDDTAVYFCARCGGEFIWGWLDPWGQGTLVTVSS VL: QSALTQPASVSGSPGQSITISCTGTSSDIGGYNYVSWYQQHPGLAPKLMIYDVSYRPSGVSNRFSGSKSGNTASLTISGLQAEDEADYYCSSYTSSGTLVFGGGTKLTVL	binds
5.6.c3567 (antibody, V domains shown) VH: EVQLVESGGVVVQPGGSLRLSCAASGFTFDDYTMHWVRQVPGKGPEWVSLITWDGAHTYYADSVKGRFTISRDNSKNSLYLQMNSLRTEDTALYFCARDTAGGAFWSGYPDYWGQGTLVTVSS VL: DIQMTQSPSSLSASVGDRVTITCRASQSISSYLIWYQQKPGKVPKVLIYGASSLQSGVPSRFSGSGSGTDFTLTISSLQPEDFATYYCQQSHSIPYTFGQGTKLEIK	binds
